meta.source: the supplement of paper PMC9170038

Test system: MS2 coat protein
Test: apparent KD of MS2 coat protein; designed switch direction (-1 OFF switch, 1 ON switch): -1; higher = weaker reporter binding
Conditions: input ligand: FMN 200 uM
Could you label it Yes if measured apparent KD of MS2 coat protein is 50 nM or higher, and No otherwise?

sequence.text	target.or.system	answer.label
UAUUAGCAAGCGAGAUCCCACAUGAGGAUCACCCAUGUAAUAAGCAUCCAGAAUUACUGGGUGCAAGCUCGUCUUAU [Winner reversed engineered 10] (Eterna round: R97, puzzle: Sensor, turn-off variant 1)	MS2 coat protein	No
GCCGUAAAUGUGAGGAUAUACCUAUGGAAACAUAGGUAGAAGGCACAUGAGGAUCACCCAUGUUCUUAAUCGGC [Mat - Exclusion 4 - Eli Mod - D2] (Eterna round: R97, puzzle: Brourd's mod of Exclusion 4)	MS2 coat protein	Yes

Q: Determine whether this sequence has apparent KD of MS2 coat protein no lower than 50 nM: UAUACCCGAGGAUAUACAUGAGGAUCACCCAUGUAGUGAAAGCUCUAAGAGCGCUCAGGUAGAAGGCGGAUUAA [EX3 A.9] (Eterna round: R97, puzzle: Exclusion 3)
Ans: No

Q: Assess whether reported apparent KD of MS2 coat protein for AACAGUACAGGAUAUACAUGAGGAUCACCCAUGUGAGAAACCACUGGCGUACCAGAAAGUAGAAGGGUACUGGA [Moding Maslow Revisited (73) 29] (Eterna round: R96, puzzle: Exclusion 3) sits at 50 nM or higher.
Ans: Yes

Q: Decide: is the reported value of apparent KD of MS2 coat protein for GAUCCUUCUGUUAGGAUAUGCUUUGGGCUUCCGCAGCAGAAGGAACAUGAGGAUCACCCAUGUCAAAUAAAAUC [salish99_bmex4_r4_501] (Eterna round: R97, puzzle: Brourd's mod of Exclusion 4) equal to or greater than 50 nM?
Ans: No

Q: Would you say AUGGUGUCAGGAUAUCUCAAAGCACAGAAUGAGCGGCUACGGGAGAAGGGACAUGAGGAUCACCCAUGUACUCU [EX4 B.29] (Eterna round: R97, puzzle: Exclusion 4) shows apparent KD of MS2 coat protein at minimum 50 nM?
Ans: No

Q: Could you tell me if the measured apparent KD of MS2 coat protein of AAAUGAGAGCAGGAUAUCUUAUAAAUGUAUGAAAGAGAAGGGCUCACAUGAGGAUCACCCAUGUGGUCCUAGAU [jl-ex6-4.77 jandersonlee mod] (Eterna round: R97, puzzle: Exclusion 6) reaches 50 nM or more?
Ans: Yes

Q: // inclusive: apparent KD of MS2 coat protein at least 50 nM? input: CUAUAGUAUGUAGGAUAUCGGUCAGUUUCUGAUCGAGAAGGACAUGAGGAUCACCCAUGUAAGGCUACCGGUUUCUGGUGGCCG [JL ENG1 3.54] (Eterna round: R96, puzzle: Exclusion NG 1)
Ans: Yes

* * *

Each record here notes measured apparent KD of MS2 coat protein.
Test system: MS2 coat protein
Test: apparent KD of MS2 coat protein, switch OFF state (with FMN for OFF switches, without FMN for ON switches); designed switch direction (-1 OFF switch, 1 ON switch): -1; higher = weaker reporter binding
Details: FMN input: 0 or 200 uM; Eterna round: R93 (includes R88 designs)
Please give a number only; it is taken to be in nM.

>>> df
                              sequence_text                        parameter  readout_value
0  UAGGUACGAGGAUAUACAUAGAUACAGACACAUGUAGAUGUACAUGAGGAUCACCCAUGUAGAAGGCGUAUAUA [Mat - Same state - Mayanna Mod - D110]  apparent KD of MS2 coat protein            142
1  AACAGUACAGGAUAUACAUGAGGAUCACCCAUGUCAGAAUUAAGCAGCGUAACACAAAGUAGAAGGGUAAUGGA [Ruby 18]  apparent KD of MS2 coat protein           41.1
2  GAAAAAGGAGGAUAUACGAACAUGUCAAAAGACGUGAAGGGACAUGAGGAUCACCCAUGUAGAAGGCUUAAAAG [Mat - Exclusion 2 - JL mod - D94]  apparent KD of MS2 coat protein           15.7
3  AAAAAACAUGAGGAUCACCCAUGUGAGGAUAUGUAUAUCCCUAAAAAAGUGUGGGACUACAGAAGGCACUUGGA [Atanri]  apparent KD of MS2 coat protein            122
4  AGGAAACAUGAGGAUCACCCAUGUAAGGAUAUGAACGAAAAUAAAUAAAAAUAAAAGUUCAGAAGGUACGAAAA [66%, Wbt, 7]  apparent KD of MS2 coat protein           55.1

Q: Supply reported apparent KD of MS2 coat protein belonging to this sequence: AAAACGUGAGGAUAUGCACCAAAAAAGGUAAAUCGGGUACGACAUGAGGAUCACCCAUGUAGAAGGCACGAAAA [Frodo Flailing 11 - Jieux - Exclusion 2]
Ans: 42.9

Q: Give the reported value of apparent KD of MS2 coat protein for this record: AGGGAGUCAGGAUAUCGGAAAACAAAACAACGAAAAAAAGACGAGAAGGGACAUGAGGAUCACCCAUGUAAGAA [milkweed 17]
Ans: 21.6

Q: Read the entry AAGGUAGGAGGAUAUACAUAGAUACAGAUACAUGUAGACGUACAUGAGGAUCACCCAUGUAGAAGGCCUAUAUA [Mat - Same state - Mayanna Mod - D147] and write its reported apparent KD of MS2 coat protein.
Ans: 107

Q: Could you please provide reported apparent KD of MS2 coat protein for AAAUACUAAGGAUAUACAUGAGGAUCACCCAUGUACAAACCCGUGGAACGGAUCGUUAGUAGAAGGUGGACAAA [Zaanrion] ? Thanks!
Ans: 15.4

Q: Fill in apparent KD of MS2 coat protein for record AGGAAACAUGAGGAUCACCCAUGUGAGGAUAUGUAAAAGAAAAGAAAAGAAAGAAGAAACAGAAGGCACAAGAA [Nynetjer]
Ans: 49.1

Q: Report apparent KD of MS2 coat protein, nothing else, for this sequence: AACAUACAUGAGGAUCACCCAUGUCAGGAUAUGCCGGGUUAGAAAAAAAAAAAAAAACGUAGAAGGGACAAAAA [Bilbo Confounded 3 - Jieux - Exclusion 1]
Ans: 62.2

Q: Complete the entry with apparent KD of MS2 coat protein for AAAAAGUGAGGAUAUGGAAAAAAAAAAAAAAAAAAAAAAAACCAGAAGGCACAUGAGGAUCACCCAUGUAAAAA [low kcal]
Ans: 30.9

Q: Entry AAAAGACAUGAGGAUCACCCAUGUAAGGAUAUGCAGAGAGCAAAACAAAAAAAAAAAAGCAGAAGGUACAUAAA [Design2] needs its apparent KD of MS2 coat protein filled in; supply it.
Ans: 65.1

* * *

System: MS2 coat protein
Experiment: apparent KD of MS2 coat protein, switch ON state; designed switch direction (-1 OFF switch, 1 ON switch): -1; higher = weaker reporter binding
Conditions: FMN input: 0 or 200 uM; Eterna round: R93 (includes R88 designs)
Recorded apparent KD of MS2 coat protein split into classes range 1 (below 30 nM), range 2 (30 nM to below 40 nM), range 3 (40 nM or more)

# count of solved cases: 6
In [3]: df
Out[3]:
                              sequence_text  target_or_system  answer_label
0  AAAAAACAUGAGGAUCACCCAUGUAAGGAUAUGCAAGCAAGAAGAAAGAACAGAAAAAGCAGAAGGUACAAAAA [Amethyst 72]  MS2 coat protein       range 1
1  AAAAAACAUGAGGAUCACCCAUGUGAGGAUAUCGCUAGUGAGGCCAUAGUGUCAGUGAUGAGAAGGCACAUAAA [Brourd 613 Mod 9 - Jieux - Exclusion 1]  MS2 coat protein       range 2
2  CCUAAGAAAGGAUAUACACCGGUGAACCGCUGAAAUCAGCAACAUGAGGAUCACCCAUGUAGAAGGUUUAUGGG [Erusqu]  MS2 coat protein       range 3
3  CAGAGACAUGAGGAUCACCCAUGUUAGGAUAUGCGUGUAUGCUAAAAAAAGUUAACAAGCAGAAGGAACAGAGG [JR_Exc001_Sub309]  MS2 coat protein       range 1
4  AACAAACAUGAGGAUCACCCAUGUCAGGAUAUCCGAAAUAAAGAAACAAUAAUAAUAAGGAGAAGGGACUAAAU [Ex1 sub 2]  MS2 coat protein       range 2
5  AAAAAGUCAGGAUAUAUGCGAAAAAUAAAAAAAAUAAAAGCAUAGAAGGGACAUGAGGAUCACCCAUGUUAAAA [Ex 4 May 16]  MS2 coat protein       range 2

Q: Please report the category associated with UAUAACCAAGGAUAUACUAACGAAACUAAUGCAUAUAUAUAACAUGAGGAUCACCCAUGUAGAAGGUGGAGAAU [JR_Exc002_Sub012] , nothing else.
Ans: range 3

Q: Dear colleague, I would appreciate it if you could identify the bin for GAGAAGUUAGGAUAUGCGGAGGGAAGGAAGGAAAGGGAAGGGCAGAAGGAACAUGAGGAUCACCCAUGUAAGAG [salish99-ex4-02] and reply at your convenience.
Ans: range 2

Q: Any idea which band AAGAAGUGAGGAUAUGUCUGUGCGAAAAAAAAAAAGUGCAGACAGAAGGCACAUGAGGAUCACCCAUGUAAAAA [Florian 65% 2] is in?
Ans: range 2

Q: Could you place AAAGGACGAGGAUAUACAUGAGGAUCACCCAUGUAAAAAGCAUAAUAAAAUAACUUAUGUAGAAGGCGUCCAAA [Mat - Exclusion 3 - Eli mod - D91] in its proper category? Many thanks.
Ans: range 1
